Tested on: Saccharomyces cerevisiae;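 further: PSI is a weighted mean of sequencing reads over stability bins, variants kept only with over 10 reads, mCherry proximal and sfGFP distal, peptide attached via GGGS linker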
Assay: protein stability index of tFT-peptide fusion (C-terminal peptide) (PSI (0-1 scale)); higher = more stable (slower turnover)
Settings: genetic background: cdc34-1; temperature: 37 C
Listed here are sequences together with their documented protein stability index.
// no unit, no text: just the number

The examples below pair each entry with its known result.
[[record]]
sequence = "SVECLCLFVACR"
experimental_result = 0.192

[[record]]
sequence = "FLCFFGGCFFLV"
experimental_result = 0.581

[[record]]
sequence = "PLRRPSWVVLSS"
experimental_result = 0.671

[[record]]
sequence = "TLDWKFGWGGIG"
experimental_result = 0.603

[[record]]
sequence = "WSVCLLLLGRFC"
experimental_result = 0.523


input: Dear colleague, I am looking for the recorded protein stability index of the following sequence: VPSPWLIRSLMS
output: 0.648

input: Input AIDLCIAVVGMV
output: 0.479

input: Input GHFILFWVFCFM
output: 0.316

input: Input GLNKGKYIKLYT
output: 0.68

input: Input IVVWCGIRYSIR
output: 0.328

input: Input LRVGVRSWGGKW
output: 0.432

input: Input LFDYEAGEVMGG
output: 0.729

input: Input GGRLGRAGGGGR
output: 0.633

input: Input WSFYVVGRLLVN
output: 0.33

input: Input CYVFLCGSFVFV
output: 0.446

input: Input RLLFFVFLSSRF
output: 0.287

input: Input GTIFLIRVLLFG
output: 0.154

input: Input LGPLGWLVLLLV
output: 0.415

input: Input LAGVVWVVWCVG
output: 0.17

input: Input LFPLLCLLLPSL
output: 0.614

input: Input PYPSVIFFLHVY
output: 0.43

input: Input PSPRRPPRSRFP
output: 0.651
